Tested on: Vibrio anguillarum
Experiment: Antibacterial activity against Vibrio anguillarum after 18 hrs by broth dilution method
Assay type: functional
Some compounds, each annotated with its measured MIC.

- smilesText: "COC(=O)C1=CC2=CC(=O)[C@@](C)(O)[C@@H](OC(=O)c3c(C)cc(O)cc3O)[C@@H]2CO1"
  tgt: "Vibrio anguillarum"
  MIC: "> 8.28 µg/mL"
- smilesText: "C/C=C/C1=CC2=CC(=O)[C@@](C)(OC(=O)c3c(C)cc(O)cc3O)C(=O)C2=CO1"
  tgt: "Vibrio anguillarum"
  MIC: "0.26 µg/mL"
- smilesText: "C/C=C/C1=CC2=CC(=O)[C@@](C)(O)[C@@H](OC(=O)c3c(C)cc(O)cc3O)[C@@H]2CO1"
  tgt: "Vibrio anguillarum"
  MIC: "> 8.28 µg/mL"

## Task Request the reported MIC associated with O=C(O)c1cn(C2CC2)c2cc(N3CCNCC3)c(F)cc2c1=O
## Result 0.199 to 0.52 µg/mL

## Task // query MIC value for entry Cc1cc(O)cc(O)c1C(=O)O[C@H]1[C@@H]2COC(/C=C/[C@H](C)O)=CC2=CC(=O)[C@@]1(C)O
## Result > 8.28 µg/mL

## Task What value of measured MIC is listed for Cc1cc(O)cc(O)c1C(=O)O[C@H]1[C@@H]2COC(/C=C/CO)=CC2=CC(=O)[C@@]1(C)O ?
## Result > 8.28 µg/mL

## Task Requested field: MIC. Item: Cc1cc(O)cc(O)c1C(=O)O[C@H]1C2=COC(/C=C/CO)=CC2=CC(=O)[C@@]1(C)O
## Result > 8.28 µg/mL

## Task Reported MIC for COC(OC)C1=CC2=CC(=O)[C@@](C)(O)[C@@H](OC(=O)c3c(C)cc(O)cc3O)[C@@H]2CO1 : what is it?
## Result > 8.28 µg/mL
